This section presents molecules with their documented IC50 values.
System: hedgehog signaling pathway
method-notes: Gli-Luc Reporter Assay for Hh Pathway Inhibition (TMHh-12 cells, pTA-8×Gli-Luc reporter)
Type: cell-based, Mouse
particulars: Mus musculus, TMHh12, enzymatic and cellular assays for the inhibition of hedgehog signaling pathways; read-out: IC50 Ranges

Some solved entries appear below for comparison.
| molecule | IC50 |
| --- | --- |
| CCOc1ccc(-c2cc(Nc3cccc4c3CCN(S(C)(=O)=O)C4)ccc2C)nn1 | 0.001 to 1 nM |
| CNS(=O)(=O)N1CCc2c(cccc2Nc2ccc(Cl)c(-c3ncc(-c4ccccc4)[nH]3)c2)C1 | 1 to 10 nM |
| CS(=O)(=O)N1CCc2c(cccc2Nc2cc(-c3nc4ccccc4[nH]3)c(Cl)cn2)C1 | 10 to 100 nM |
| [O-][S+]1CCC([N+]2([O-])CCc3c(cccc3Nc3ccc(Cl)c(-c4ncc(-c5ccccc5)[nH]4)c3)C2)CC1 (centres unmarked) | 1 to 10 nM |
| Cc1ccc(-c2cnc(-c3cc(Nc4cccc5c4CCN(S(C)(=O)=O)C5)ccc3C)[nH]2)cn1 | 1 to 10 nM |
| Cc1ccc(Nc2cccc3c2CCN(S(C)(=O)=O)C3)cc1-c1ccc(C(C)C)cc1 | 100 to 1000 nM |
| CC1(CN2CCc3c(cccc3Nc3ccc(Cl)c(-c4ncc(-c5ccccc5)[nH]4)c3)C2)CC1 | 0.001 to 1 nM |

Query: Consider the molecule shown here: Cc1ccc(Nc2cccc3c2CCN(C2CCS(=O)(=O)C2)C3)cc1-c1ncc(F)cc1F (centres unmarked) What is its recorded IC50?
Reply: 0.001 to 1 nM
